- Tested on: HCI09 (cells of a triple-negative luminal androgen receptor type breast cancer xenograft);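 note: PDX cells carrying CMV promoter-driven luciferase, viability read as total photon flux per second by IVIS imaging following D-luciferin, vehicle control 0.1% DMSO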
- measurement.protocol: cell viability (% of vehicle); higher = less cytotoxic
- settings: 10 µM; 72 h
compounds and their reported cell viability

{"compound": "Nc1nc(=O)c2ncn(COCCO)c2[nH]1", "cell viability": 55.9}
{"compound": "COC(=O)C1=COC(O)C2C(CO)=CCC12 (stereo unspecified)", "cell viability": 95.3}
{"compound": "Br.Br.Br.Br.Br.Cc1cc(N2CCN(C3CNC(C(=O)N4CCSC4)C3)CC2)n(-c2ccccc2)n1.Cc1cc(N2CCN(C3CNC(C(=O)N4CCSC4)C3)CC2)n(-c2ccccc2)n1 (stereo unspecified) [Teneligliptin hydrobromide]", "cell viability": 82.5}
{"compound": "CC(=O)C1CCC2C3CC=C4CC(O)CCC4(C)C3CCC12C (stereo unspecified)", "cell viability": 76}
{"compound": "CCCN(CCC)CCc1cccc2c1CC(=O)N2.Cl [Ropinirole HCl]", "cell viability": 87.9}
{"compound": "CCOC(=O)c1ccc(N)cc1", "cell viability": 115}
{"compound": "CN1CCCC1CCOC(C)(c1ccccc1)c1ccc(Cl)cc1.O=C(O)C=CC(=O)O (stereo unspecified) [Clemastine Fumarate]", "cell viability": 52.8}
{"compound": "O=C([O-])CC(O)CC(O)C=Cc1c(C2CC2)nc2ccccc2c1-c1ccc(F)cc1.O=C([O-])CC(O)CC(O)C=Cc1c(C2CC2)nc2ccccc2c1-c1ccc(F)cc1.[Ca+2] (stereo unspecified)", "cell viability": 53.9}
{"compound": "Nc1nc(=O)c2c(CCc3ccc(C(=O)NC(CCC(=O)[O-])C(=O)[O-])cc3)c[nH]c2[nH]1.[Na+].[Na+] (stereo unspecified)", "cell viability": 88.7}
{"compound": "CN(C)CCOC(c1ccccc1)c1ccccc1.Cl [Diphenhydramine HCl]", "cell viability": 87}
{"compound": "CCOc1nc2cccc(C(=O)OC(C)OC(=O)OC3CCCCC3)c2n1Cc1ccc(-c2ccccc2-c2nn[nH]n2)cc1 (stereo unspecified)", "cell viability": 18.3}
{"compound": "CCN(Cc1ccncc1)C(=O)C(CO)c1ccccc1 (stereo unspecified) [Tropicamide]", "cell viability": 106}
{"compound": "NC1CCCCC1N.O=C([O-])C(=O)[O-].[Pt+2] (stereo unspecified)", "cell viability": 75.7}
{"compound": "CC(=O)N=c1sc(S(N)(=O)=O)nn1C [Methazolamide]", "cell viability": 92.5}
{"compound": "CN(C)CCc1c[nH]c2ccc(CS(=O)(=O)N3CCCC3)cc12.O=C(O)CC(O)C(=O)O [Almotriptan Malate]", "cell viability": 103}
{"compound": "CC1CCc2cc(F)cc3c(=O)c(C(=O)O)cn1c23 (stereo unspecified)", "cell viability": 93.1}
